experiment: The drug is tested on Bacteroides cellulosilyticus strain: DSM14838 for biotransformation. The drug concentrations were measured before and after a 12-h incubation by liquid-chromatography-coupled mass spectrometry (LC–MS); conditions: 2 µM
property.label: Bacterial Biotransformation

For the molecule COc1cc2nc(N3CCN(C(=O)C4CCCO4)CC3)nc(N)c2cc1OC (configuration not stated) , what Bacterial Biotransformation is on record?
Compound NOT metabolized

Please do the same for O=C(O)COCCN1CCN(C(c2ccccc2)c2ccc(Cl)cc2)CC1 (configuration not stated) as well.
Compound metabolized

Please do the same for "C[C@H]1O[C@@H](O[C@H]2[C@@H](O)C[C@H](O[C@H]3[C@@H](O)C[C@H](O[C@H]4CC[C@@]5(C)[C@H](CC[C@@H]6[C@@H]5C[C@@H](O)[C@]5(C)[C@@H](C7=CC(=O)OC7)CC[C@]65O)C4)O[C@@H]3C)O[C@@H]2C)C[C@H](O)[C@@H]1O" as well.
Compound NOT metabolized

Please do the same for "CCCCC1=NC2(CCCC2)C(=O)N1Cc1ccc(-c2ccccc2-c2nnn[nH]2)cc1" as well.
Compound metabolized

---
For the molecule CCOC(=O)[C@H](CCc1ccccc1)N[C@@H](C)C(=O)N1CCC[C@H]1C(=O)O.O=C(O)/C=C\C(=O)O [ENALAPRIL MALEATE] , what Bacterial Biotransformation is on record?
Compound NOT metabolized

Please do the same for OC(CCN1CCCCC1)(c1ccccc1)C1CCCCC1 (configuration not stated) as well.
Compound NOT metabolized

Please do the same for CCCC(=O)Nc1ccc(OCC(O)CNC(C)C)c(C(C)=O)c1 (configuration not stated) as well.
Compound NOT metabolized

----------
assay: The drug is tested on Bacteroides coprophilus strain: DSM18228 for biotransformation. The drug concentrations were measured before and after a 12-h incubation by liquid-chromatography-coupled mass spectrometry (LC–MS); settings: 2 µM
property.label: Bacterial Biotransformation

Example entries begin here.
For the compound "CC(C)(C#N)c1cc(Cn2cncn2)cc(C(C)(C)C#N)c1" , what Bacterial Biotransformation is on record?
Compound metabolized

Please do the same for CN1CCC(=C2c3ccccc3CCc3cccnc32)CC1.O=C(O)/C=C\C(=O)O.O=C(O)/C=C\C(=O)O [AZATADINE MALEATE] as well.
Compound NOT metabolized

Please do the same for COc1ccccc1OCC(O)COC(N)=O (stereo not given) as well.
Compound NOT metabolized

Please do the same for COCCCC/C(=N\OCCN)c1ccc(C(F)(F)F)cc1.O=C(O)/C=C\C(=O)O [FLUVOXAMINE MALEATE] as well.
Compound metabolized

Please do the same for CC(O)(CS(=O)(=O)c1ccc(F)cc1)C(=O)Nc1ccc(C#N)c(C(F)(F)F)c1 (stereo not given) [BICALUTAMIDE] as well.
Compound NOT metabolized

---
For the compound CCC1(c2ccc(N)cc2)CCC(=O)NC1=O (stereo not given) [AMINOGLUTETHIMIDE] , what Bacterial Biotransformation is on record?
Compound NOT metabolized

Please do the same for "CC(=O)CCCCn1c(=O)c2c(ncn2C)n(C)c1=O" as well.
Compound NOT metabolized

Please do the same for CN(C)CCOC(C)(c1ccccc1)c1ccccn1.O=C(O)CCC(=O)O (stereo not given) [DOXYLAMINE SUCCINATE] as well.
Compound NOT metabolized

Please do the same for C#C[C@]1(OC(C)=O)CC[C@H]2[C@@H]3CCC4=C[C@@H](OC(C)=O)CC[C@@H]4[C@H]3CC[C@@]21C [ETHYNODIOL DIACETATE] as well.
Compound NOT metabolized

Please do the same for CNCCC(Oc1ccc(C(F)(F)F)cc1)c1ccccc1 (stereo not given) as well.
Compound metabolized

Please do the same for O=C1C(CC[S+]([O-])c2ccccc2)C(=O)N(c2ccccc2)N1c1ccccc1 (stereo not given) as well.
Compound NOT metabolized

Please do the same for "CC#C[C@]1(O)CC[C@H]2[C@@H]3CCC4=CC(=O)CCC4=C3[C@@H](c3ccc(N(C)C)cc3)C[C@@]21C" as well.
Compound NOT metabolized

Please do the same for COc1cc2nc(N3CCN(C(=O)C4CCCO4)CC3)nc(N)c2cc1OC (stereo not given) as well.
Compound NOT metabolized

Please do the same for CC(C)[C@H]1CC[C@H](C(=O)N[C@H](Cc2ccccc2)C(=O)O)CC1 [NATEGLINIDE] as well.
Compound NOT metabolized

Please do the same for "C=CC[C@@H]1/C=C(\C)C[C@H](C)C[C@H](OC)[C@H]2O[C@@](O)(C(=O)C(=O)N3CCCC[C@H]3C(=O)O[C@H](/C(C)=C/[C@@H]3CC[C@@H](O)[C@H](OC)C3)[C@H](C)[C@@H](O)CC1=O)[C@H](C)C[C@@H]2OC.O" as well.
Compound metabolized

Where do these numbers come from? They come from ChEMBL document CHEMBL5303573.
